system: A/Vietnam/1203/04H (A/Vietnam/1203/04 × Ann Arbor/6/60 hybrid); experiment: microbe, parasite or virus in culture; settings: Influenza A virus, H1N1|H5N1, MDCK, read-out: IC50, Neutral Red Uptake Assay
pIC50: −log10 of the molar value.
// pIC50 lookup, one value per entry
assay-readout: pIC50

{"columns": ["molecule", "comparative-sign", "assay-result"],
 "data": [
  ["Nc1ccn([C@@H]2O[C@H](CO)[C@@H](O)[C@H]2F)c(=O)n1", "=", 5.47],
  ["Nc1ccn([C@@H]2O[C@H](CO)[C@@H](O)C2(F)F)c(=O)n1 [2’-deoxy-2’, 2’-difluorocytidine, reference compound]", ">", 6.49]
]}

====

// pIC50 lookup, one value per entry
system: Influenza A/Vietnam/1203/2004 (H5N1); test: microbe, parasite or virus in culture; conditions: H5N1, MDCK, read-out: IC50, Visual Assay
pIC50: −log10 of the molar value.

{"columns": ["compound", "pIC50"],
 "data": [
  ["Nc1nc(=O)n([C@H]2C[C@H](O)[C@@H](CO)O2)cc1F", 6.72],
  ["Nc1nc2c(ncn2[C@@H]2O[C@H](CO)[C@@H](O)[C@H]2F)c(=O)[nH]1", 4.68],
  ["O=c1ccn([C@@H]2O[C@H](CO)[C@@H](O)[C@H]2F)c(=O)[nH]1", "< 4.00"],
  ["Nc1ncnc2c1ncn2[C@@H]1O[C@H](CO)[C@@H](O)[C@H]1F", "< 4.00"],
  ["Nc1ccn([C@@H]2O[C@H](CO)[C@@H](O)[C@H]2I)c(=O)n1", "< 4.00"],
  ["Nc1ccn([C@@H]2O[C@H](CO)[C@@H](O)C2(F)F)c(=O)n1 [2’-deoxy-2’, 2’-difluorocytidine, reference compound]", "> 7.49"]
]}

====

Observed SI (CC50/IC50), Neutral Red Uptake Assay for A/Hong Kong/213/2003 (H5N1), reported per entry below.

{"columns": ["molecule", "target-or-test-system", "SI (CC50/IC50), Neutral Red Uptake Assay"],
 "data": [
  ["Nc1ncnc2c1ncn2[C@@H]1O[C@H](CO)[C@@H](O)[C@H]1F [2’-deoxy-2’-fluoroadenosine]", "A/Hong Kong/213/2003 (H5N1)", 0],
  ["Nc1ccn([C@@H]2O[C@H](CO)[C@@H](O)[C@H]2F)c(=O)n1 [2’-deoxy-2’-fluorocytidine, 2'-deoxy-2'-fluorocytidine]", "A/Hong Kong/213/2003 (H5N1)", ">447 ± 216"],
  ["[N-]=[N+]=N[C@@H]1[C@H](O)[C@@H](COP(=O)(O)OP(=O)(O)OP(=O)(O)O)O[C@H]1n1ccc(N)nc1=O [2’-azido-2’-deoxycytidine, 2'-azido-2'-deoxyctidine-5'-triphosphate]", "A/Hong Kong/213/2003 (H5N1)", "0 ± 0"],
  ["Nc1nc(=O)n([C@H]2C[C@H](O)[C@@H](CO)O2)cc1F [2'-deoxy-5-fluorocytidine]", "A/Hong Kong/213/2003 (H5N1)", "0 ± 0"],
  ["Nc1ccn([C@@H]2O[C@H](CO)[C@@H](O)[C@H]2I)c(=O)n1 [2’-iodo-2’-deoxycytidine]", "A/Hong Kong/213/2003 (H5N1)", 0]
]}
